Cited source: patent US20250296953A1

Tested on: 60 different human tumor cell lines
experimental setup: read-out: LC50; SN12C (Renal Cancer), five dose
result type: CC50 (µM)
Report as a plain number; the unit µM is understood.

Ask | Fill in: CC50 of C[C@]12CCc3nc(N)sc3C1=CC[C@@H]1[C@@H]2CC[C@]2(C)C(=NNC(N)=O)CC[C@@H]12 is ___
Reply | 6.33

* * *

System: 60 different human tumor cell lines
procedure text: NCI Development Therapeutics Program 60 cell line screen, one dose
Type: cell-based
experimental setup: Ovarian Cancer, OVCAR-8
result type: Growth Percent

Reference set, count: 4
C[C@]12CCc3sc(Nc4ccc(F)cc4F)nc3C1=CC[C@@H]1[C@@H]2CC[C@]2(C)C(=O)CC[C@@H]12    45.20%
C[C@]12CCc3nc(N)sc3C1=CC[C@@H]1[C@@H]2CC[C@]2(C)C(=NNC(N)=O)CC[C@@H]12    −2.26%
C[C@]12CC[C@H]3[C@@H](CC=C4c5sc(-c6ccc(O)cc6)nc5CC[C@@]43C)[C@@H]1CC[C@@H]2O    74.18%
C[C@]12CCc3sc(Nc4ccc(OC(F)(F)F)cc4)nc3C1=CC[C@@H]1[C@@H]2CC[C@]2(C)C(=O)CC[C@@H]12    66.51%

Ask | Fill in: Growth Percent of C[C@]12CC[C@H]3[C@@H](CC=C4c5sc(Nc6ccccc6)nc5CC[C@@]43C)[C@@H]1CC[C@@H]2O is ___
Reply | −8.95%

Ask | C[C@]12CCc3sc(Nc4cccc(O)c4)nc3C1=CC[C@@H]1[C@@H]2CC[C@]2(C)C(=O)CC[C@@H]12 ?
Reply | 17.89%

Ask | C[C@]12CCc3sc(NCCc4ccccc4)nc3C1=CC[C@@H]1[C@@H]2CC[C@]2(C)C(=O)CC[C@@H]12 ?
Reply | 72.09%

Ask | CN(c1ccccc1)c1nc2c(s1)CC[C@@]1(C)C2=CC[C@@H]2[C@@H]1CC[C@]1(C)C(=O)CC[C@@H]21 ?
Reply | 76.81%

Ask | C[C@]12CCc3nc(Nc4ccc(O)cc4)sc3C1=CC[C@@H]1[C@@H]2CC[C@]2(C)C(=O)CC[C@@H]12 ?
Reply | 35.92%
